Here the recorded pIC50 is given for each entry.
tested on: Ub-PCNA levels in the nucleus of ES2 cells (USP1 activity); assay: ES2 Ub-PCNA immunofluorescence (IF) assay; assay type: cell-based; conditions: Homo sapiens, ES-2; ES2 cells, 3 hours, Ub-PCNA immunofluorescence; read-out: USP1 IC50 (Ub-PCNA)
pIC50: −log10 of the molar value.

Compound: CCn1cc(C(F)(F)F)nc1-c1ccc(CN2CC(N)Cn3nc(-c4c(Cl)cnn4C(C)C)cc32)cc1F (stereo not shown)
Measured on: Ub-PCNA levels in the nucleus of ES2 cells (USP1 activity)
pIC50: > 7.00
--
Compound: COc1ncnc(C)c1-c1cc2n(n1)CCCN2Cc1ccc(-c2nc(C(F)(F)F)cn2C)cc1
Measured on: Ub-PCNA levels in the nucleus of ES2 cells (USP1 activity)
pIC50: < 6.30
--
Compound: CCn1cc(C(F)(F)F)nc1-c1ccc(CN2C(=O)CCn3nc(-c4c(C)cnn4C(C)C)cc32)cc1
Measured on: Ub-PCNA levels in the nucleus of ES2 cells (USP1 activity)
pIC50: > 7.00
--
Compound: CCn1cc(C(F)(F)F)nc1-c1ccc(NC2CCCn3nc(-c4c(Cl)cnn4C(C)C)cc32)cc1OC (stereo not shown)
Measured on: Ub-PCNA levels in the nucleus of ES2 cells (USP1 activity)
pIC50: 6.30 to 7.00
--
Compound: CCn1cc(C(F)(F)F)nc1-c1ccc(CN2CC3(CC3)Cn3nc(-c4c(OC)ncnc4C4CC4)cc32)cc1F
Measured on: Ub-PCNA levels in the nucleus of ES2 cells (USP1 activity)
pIC50: > 7.00
--
Compound: COc1cc(CN2C(=O)CCn3nc(-c4c(OC)ncnc4C4CC4)cc32)ccc1-c1nc(C(F)(F)F)cn1C(C)C
Measured on: Ub-PCNA levels in the nucleus of ES2 cells (USP1 activity)
pIC50: > 7.00

Next item in the queue.
Ask: Given the entry COc1ncnc(C2CC2)c1-c1nn2c(c1Cl)N(Cc1ccc(-c3nc(C(F)(F)F)cn3C)cc1)C(=O)CC2 , report its measured pIC50.
Result: > 7.00

---

assay: Liver microsomal metabolic stability, rat liver microsomes (RLM); settings: rat, liver microsomes, t1/2 (min) in RLM, 1 μM compound, 1 mg/mL microsomes, NADPH
Here the recorded half-life at 1 μM is given for each entry.

Study these solved cases before continuing.
Molecule: CC(C)n1ncc(Cl)c1-c1cc2n(n1)CCC(=O)N2Cc1ccc(-c2nc(C(F)(F)F)cn2CCF)cc1 [Example 79]
half-life at 1 μM: > 25 min

Molecule: CCn1cc(C(F)(F)F)nc1-c1ccc(O[C@@H]2CCCn3nc(-c4c(OC)ncnc4C4CC4)cc32)cc1F (single isomer, unassigned) [Example 264]
half-life at 1 μM: > 25 min

Molecule: CCn1cc(C(F)(F)F)nc1-c1ccc([C@H](C)N2C(=O)CCn3nc(-c4c(Cl)cnn4C(C)C)nc32)cc1 [Example 193]
half-life at 1 μM: < 25 min

Molecule: CCn1cc(C(F)(F)F)nc1-c1ccc(N[C@@H]2CCCn3nc(-c4c(Cl)cnn4[C@@H](C)CF)cc32)cc1 (single isomer, unassigned) [Example 324]
half-life at 1 μM: > 25 min

Molecule: Cc1cc(C(F)(F)F)nn1-c1ccc(NC2CCCn3nc(-c4c(Cl)cnn4C(C)C)cc32)cc1 (stereo not shown) [Example 244]
half-life at 1 μM: > 25 min

Molecule: Cc1cnn(C(C)C)c1-c1cc2n(n1)CCCN2Cc1ccc(-c2nc(C(F)(F)F)cn2C)c(F)c1 [Example 55]
half-life at 1 μM: < 25 min

Next item in the queue.
Ask: Given the entry CCn1cc(C(F)(F)F)nc1-c1ccc([C@@H](C)N2C(=O)CCn3nc(-c4c(OC(F)F)ncnc4C4CC4)nc32)cc1 [Example 208] , report its measured half-life at 1 μM.
Result: < 25 min

---

tested on: Ub-PCNA levels in the nucleus of ES2 cells (USP1 activity); assay: ES2 Ub-PCNA immunofluorescence (IF) assay; type: cell-based; conditions: Homo sapiens, ES-2; ES2 cells, 3 hours, Ub-PCNA immunofluorescence; read-out: USP1 IC50 (Ub-PCNA)
Readout label: IC50

Study these solved cases before continuing.
Compound: CCn1cc(C(F)(F)F)nc1-c1ccc(C(C)N2C(=O)CCn3nc(-c4c(Cl)cnn4C(C)C)cc32)cc1 (centres unmarked)
IC50: < 100 nM
//
Compound: CCn1cc(C(F)(F)F)nc1-c1ccc(CN2C(=O)CCn3nc(-c4c(OC)ncnc4C4CC4)cc32)cc1
IC50: < 100 nM
//
Compound: Cc1cnn(C(C)C)c1-c1cc2n(n1)CCC(=O)N2Cc1ccc(-c2nc(C(F)(F)F)cn2C(C)C)cc1
IC50: 100 to 500 nM
//
Compound: COc1ncnc(C2CC2)c1-c1cc2n(n1)CCCN2Cc1ccc(-c2nc(C(F)(F)F)cn2C(C)C)cc1
IC50: < 100 nM
//
Compound: COc1ncnc(C2CC2)c1-c1nc2n(n1)CCC(=O)N2Cc1ccc(-c2nc(C(F)(F)F)cn2C)cc1
IC50: 100 to 500 nM
//
Compound: CCn1cc(C(F)(F)F)nc1-c1ccc(CN2C(=O)CCn3nc(-c4c(Cl)cnn4C4(COC)CC4)cc32)cc1F
IC50: 100 to 500 nM
//
Compound: CCn1cc(C(F)(F)F)nc1-c1ccc([C@@H](C)n2c(=O)ccn3nc(-c4c(OC)ncnc4C4CC4)cc23)cc1F
IC50: < 100 nM
//
Compound: CCn1cc(C(F)(F)F)nc1-c1ccc([C@H](C)N2C(=O)CCn3nc(-c4c(Cl)cnn4C(C)C)nc32)cc1F
IC50: < 100 nM

Ask: Given the entry COc1cc(CN2C(=O)CCn3nc(-c4c(OC)ncnc4C4CC4)nc32)ccc1-c1nc(C(F)(F)F)cn1C(C)C , report its measured IC50.
Result: 100 to 500 nM

Ask: Given the entry COc1ncnc(C2CC2)c1-c1cc2n(n1)CCC(=O)N2Cc1ccc(-n2nc(C(F)(F)F)cc2OC)c(F)c1 , report its measured IC50.
Result: 100 to 500 nM

Ask: Given the entry CCn1cc(C(F)(F)F)nc1-c1ccc(CN2C(=O)CCn3nc(-c4c(Cl)cnn4[C@H](C)COC)cc32)cc1F , report its measured IC50.
Result: < 100 nM

Ask: Given the entry CCn1cc(C(F)(F)F)nc1-c1ccc([C@H](C)n2c(=O)ccn3nc(-c4c(OC)ncnc4C4CC4)nc23)cc1 , report its measured IC50.
Result: < 100 nM

Ask: Given the entry CCn1cc(C(F)(F)F)nc1-c1c(F)cc(CN2C(=O)CCn3nc(-c4c(OC)ncnc4C4CC4)cc32)cc1OC , report its measured IC50.
Result: < 100 nM

Ask: Given the entry COc1ncnc(C2CC2)c1-c1nc2n(n1)CCC(=O)N2[C@H](C)c1ccc(-c2nc(C(F)(F)F)cn2C)c(F)c1 , report its measured IC50.
Result: < 100 nM

---

biological target: USP1/UAF1 enzyme (Homo sapiens, UniProt O94782); assay: USP1/UAF1 deubiquitination assay (ubiquitin-rhodamine 110 substrate); conditions: read-out: USP1 IC50 (Ub-Rho)
Sequence (O94782 whole entry): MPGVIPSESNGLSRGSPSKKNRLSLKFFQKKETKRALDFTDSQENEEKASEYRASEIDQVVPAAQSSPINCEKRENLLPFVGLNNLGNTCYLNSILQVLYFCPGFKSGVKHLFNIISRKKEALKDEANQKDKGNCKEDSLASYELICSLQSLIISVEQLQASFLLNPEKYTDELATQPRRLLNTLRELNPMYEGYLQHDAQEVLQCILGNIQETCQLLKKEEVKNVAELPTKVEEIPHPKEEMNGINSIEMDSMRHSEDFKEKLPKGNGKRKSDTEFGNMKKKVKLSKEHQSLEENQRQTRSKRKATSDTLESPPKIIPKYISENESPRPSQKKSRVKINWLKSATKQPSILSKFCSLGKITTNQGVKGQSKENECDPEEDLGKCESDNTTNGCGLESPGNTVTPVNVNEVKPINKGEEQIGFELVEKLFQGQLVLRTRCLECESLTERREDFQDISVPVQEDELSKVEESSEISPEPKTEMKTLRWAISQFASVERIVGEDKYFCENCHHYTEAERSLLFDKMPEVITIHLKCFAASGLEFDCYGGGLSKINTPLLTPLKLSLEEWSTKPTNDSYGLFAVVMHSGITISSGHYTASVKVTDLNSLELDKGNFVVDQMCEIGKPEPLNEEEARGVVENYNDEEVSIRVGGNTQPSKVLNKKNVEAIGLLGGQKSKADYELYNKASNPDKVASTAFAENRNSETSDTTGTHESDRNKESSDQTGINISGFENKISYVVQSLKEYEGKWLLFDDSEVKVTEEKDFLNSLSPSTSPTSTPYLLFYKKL
Sequence (Q8TAF3 whole entry partner): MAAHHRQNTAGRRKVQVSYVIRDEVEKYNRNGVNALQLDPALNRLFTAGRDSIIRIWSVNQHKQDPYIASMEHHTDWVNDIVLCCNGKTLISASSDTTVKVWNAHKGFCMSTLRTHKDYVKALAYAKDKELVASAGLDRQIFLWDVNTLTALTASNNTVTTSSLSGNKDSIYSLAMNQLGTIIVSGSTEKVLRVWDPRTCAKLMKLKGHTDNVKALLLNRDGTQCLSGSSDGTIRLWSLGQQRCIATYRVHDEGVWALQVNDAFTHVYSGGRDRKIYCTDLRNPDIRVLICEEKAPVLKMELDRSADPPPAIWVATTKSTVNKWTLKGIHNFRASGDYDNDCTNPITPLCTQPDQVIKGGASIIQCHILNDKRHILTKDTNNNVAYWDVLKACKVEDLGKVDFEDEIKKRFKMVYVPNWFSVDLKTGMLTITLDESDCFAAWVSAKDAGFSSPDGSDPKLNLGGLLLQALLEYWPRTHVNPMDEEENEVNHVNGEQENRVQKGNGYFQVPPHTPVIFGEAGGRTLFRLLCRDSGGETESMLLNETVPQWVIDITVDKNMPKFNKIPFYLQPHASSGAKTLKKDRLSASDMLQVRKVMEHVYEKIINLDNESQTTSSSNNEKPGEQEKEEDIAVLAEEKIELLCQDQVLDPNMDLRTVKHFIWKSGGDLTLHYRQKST
Here the recorded IC50 is given for each entry.

Study these solved cases before continuing.
Compound: CCn1cc(C(F)(F)F)nc1-c1ccc(NC2CCCn3nc(-c4c(Cl)cnn4C(C)C)cc32)cc1OC (centres unmarked) [Example 246]
IC50: < 100 nM
//
Compound: CCn1cc(C(F)(F)F)nc1-c1c(F)cc(CN2C(=O)CCn3nc(-c4c(Cl)cnn4C(C)C)nc32)cc1OC [Example 187]
IC50: 100 to 500 nM
//
Compound: Cc1ccnnc1-c1ccc(CN2C(=O)CCn3nc(-c4c(Cl)cnn4C(C)C)cc32)cc1Cl [Example 278]
IC50: > 500 nM
//
Compound: CCn1cc(C(F)(F)F)nc1-c1ccc(N(C)C2CCCn3nc(-c4c(Cl)cnn4C(C)C)nc32)cc1F (centres unmarked) [Example 259]
IC50: 100 to 500 nM
//
Compound: CC(C)Oc1cccnc1-c1ccc(CN2C(=O)CCn3nc(-c4c(Cl)cnn4C(C)C)cc32)cc1Cl [Example 310]
IC50: < 100 nM
//
Compound: CCn1cc(C(F)(F)F)nc1-c1ccc([C@H](C)N2C(=O)CCn3nc(-c4c(C#N)cnn4C(C)C)cc32)cc1F (single isomer, unassigned) [Example 325]
IC50: 100 to 500 nM
//
Compound: CCn1cc(C(F)(F)F)nc1-c1ccc(CN2C(=O)CCn3nc(-c4c(OC)ncnc4C4CC4)cc32)cn1 [Example 105]
IC50: 100 to 500 nM
//
Compound: CCn1cc(C(F)(F)F)nc1-c1ccc(CC2c3cc(-c4c(Cl)cnn4C(C)C)nn3CCN2C)cc1 (centres unmarked) [Example 360]
IC50: < 100 nM

Ask: Given the entry COc1ncnc(C2CC2)c1-c1nc2n(n1)CCC(=O)N2[C@H](C)c1ccc(-c2nc(C(F)(F)F)cn2C)c(F)c1 [Example 197] , report its measured IC50.
Result: < 100 nM
